- TEST_DETAILS: gradient 5% acetonitrile 3 min, to 50% in 2 min, to 85% in 15 min, held 3 min, 100 µL/min
- CONDITION_LABEL: column: Zorbax Extend-C18 2.1 x 50 mm; eluents: water / acetonitrile, 0.1% formic acid

[
  {
    "MOLECULE": "O=C(CN1CC=C(c2cnn(-c3ccccc3)c2)CC1)Nc1ccc2c(c1)OCCO2",
    "RP-LC retention time [s]": 675
  },
  {
    "MOLECULE": "Cc1ccc(CNC(=O)C2(C)CN(S(C)(=O)=O)CC(=O)N2c2cccc(Cl)c2C)cc1 (centres undefined)",
    "RP-LC retention time [s]": 893
  },
  {
    "MOLECULE": "COc1ccc(-c2nc(-c3ccc4nnn(C(C)C)c4c3)no2)cc1OC",
    "RP-LC retention time [s]": 1020
  },
  {
    "MOLECULE": "Cn1ncc2c(Nc3cccc([N+](=O)[O-])c3)ncnc21",
    "RP-LC retention time [s]": 683
  },
  {
    "MOLECULE": "Cc1ccccc1CNc1nc2ccncc2n(C(C)C)c1=O",
    "RP-LC retention time [s]": 745
  },
  {
    "MOLECULE": "CCn1nc(CNC(=O)Cc2cccs2)c2ccccc21",
    "RP-LC retention time [s]": 766
  },
  {
    "MOLECULE": "CN(C)S(=O)(=O)c1ccc(C(=O)N2CCC(c3nnc(C(F)(F)F)o3)CC2)cc1",
    "RP-LC retention time [s]": 747
  },
  {
    "MOLECULE": "CS(=O)(=O)N1CCCC(C(=O)Nc2nc(-c3nc4ccccc4s3)cs2)C1 (centres undefined)",
    "RP-LC retention time [s]": 800
  },
  {
    "MOLECULE": "COCCn1cnc2c(-c3ccccc3)cn(CC(=O)NCc3ccc4c(c3)OCO4)c2c1=O",
    "RP-LC retention time [s]": 828
  },
  {
    "MOLECULE": "COc1ccccc1-c1csc(-c2nnn(-c3ccc(Cl)cc3)c2N)n1",
    "RP-LC retention time [s]": 1190
  },
  {
    "MOLECULE": "O=C(NC1CCCc2ccccc21)C1CCCN(c2ccnc(-c3ccc(F)cc3)n2)C1 (centres undefined)",
    "RP-LC retention time [s]": 734
  },
  {
    "MOLECULE": "Cc1cc(C)n(-c2ccc(Nc3ccc(NS(=O)(=O)c4cccc(F)c4)cc3)nn2)n1",
    "RP-LC retention time [s]": 817
  },
  {
    "MOLECULE": "CC1CCCCN1C(=O)c1ccc2c(c1)Sc1ncccc1C(=O)N2C(C)C (centres undefined)",
    "RP-LC retention time [s]": 810
  },
  {
    "MOLECULE": "O=C(NCC1CCCO1)c1ccc(-c2cnc(Oc3ccc(F)cc3)nc2)cc1 (centres undefined)",
    "RP-LC retention time [s]": 793
  },
  {
    "MOLECULE": "O=C([C@@H]1C[C@H](F)CN1C(=O)Nc1cccc(F)c1)N1CCCCC1",
    "RP-LC retention time [s]": 708
  },
  {
    "MOLECULE": "CCOC(=O)c1c(C)oc2ncnc(Nc3ccc4c(c3)OCCO4)c12",
    "RP-LC retention time [s]": 1120
  },
  {
    "MOLECULE": "CC(C)CNC(=O)C1CCN(c2nc3ccsc3c(=O)n2Cc2ccc(F)cc2)CC1",
    "RP-LC retention time [s]": 884
  },
  {
    "MOLECULE": "CC(NC(=O)Cn1c(=O)c(=O)n(C)c2ncccc21)c1ccccc1 (centres undefined)",
    "RP-LC retention time [s]": 677
  },
  {
    "MOLECULE": "O=C(NCc1ccc2c(c1)OCO2)c1ccc(OCC(=O)C2CC2)cc1",
    "RP-LC retention time [s]": 736
  }
]

Where do these numbers come from? They come from the METLIN SMRT retention time set (Domingo-Almenara et al. 2019).
